molar heat capacity at constant pressure overview
experiment: molar heat capacity at constant pressure; conditions: 318.15 K; 101.33 kPa; Liquid; Small sample (50 mg) DSC

{"molecule": "CO", "uom": "J/K/mol", "molar heat capacity at constant pressure": 87.5}
{"molecule": "CCCCCCO", "uom": "J/K/mol", "molar heat capacity at constant pressure": 262.5}
{"molecule": "CCCCCCCCCCO", "uom": "J/K/mol", "molar heat capacity at constant pressure": 395.9}
{"molecule": "CCCCCCCCO", "uom": "J/K/mol", "molar heat capacity at constant pressure": 326.2}
{"molecule": "CCCO", "uom": "J/K/mol", "molar heat capacity at constant pressure": 157.1}
{"molecule": "CCCCO", "uom": "J/K/mol", "molar heat capacity at constant pressure": 190.8}
{"molecule": "C[S+](C)[O-] [dimethyl sulfoxide]", "uom": "J/K/mol", "molar heat capacity at constant pressure": 155.6}
{"molecule": "CCO", "uom": "J/K/mol", "molar heat capacity at constant pressure": 125.1}
